inhibition at 0.5 µM overview
Test system: Microglial cells
Assay: Dose response inhibition of NO release from microglia, 0.5-500 μM (Example 9)
Assay type: cell-based
Details: Microglia, 48 h, dose 0.5 μM; NO release, LPS/IFNγ, 48 hours; read-out: Avg % Inhibition
measured.property: inhibition at 0.5 µM (%)

{"columns": ["compound", "subject.of.test", "measurement.unit", "reported"],
 "data": [
  ["Oc1ccc(CNCc2ccc(O)c(O)c2)cc1O [Compound 73, bis(3,4-dihydroxybenzyl)amine]", "Microglial cells", "%", 12.7],
  ["O=C(NCc1ccc(O)c(O)c1)C(=Cc1ccc(O)c(O)c1)NC(=O)c1ccc(O)c(O)c1 [Compound 21]", "Microglial cells", "%", -0.76],
  ["O=C(N[C@@H]1CCCC[C@H]1NC(=O)c1ccc(O)c(O)c1)c1ccc(O)c(O)c1 (relative stereo) [Compound 26]", "Microglial cells", "%", -4.06],
  ["O=C(CCC(=O)NCc1ccc(O)c(O)c1)NCc1ccc(O)c(O)c1 [Compound 67]", "Microglial cells", "%", -2.75]
]}

###

μM NO release Avg overview
Test system: Microglial cells
Test: Dose response inhibition of NO release from microglia, 0.75-200 μM (Example 8)
Type: cell-based
Conditions: dose 6.25 μM, 48 hours
measured.property: μM NO release Avg (µM)

{"columns": ["molecule", "measured.property", "reported"],
 "data": [
  ["Oc1ccc(Cc2ccc(O)c(O)c2)cc1O [Compound 3, 3,4,3′,4′-tetrahydroxydiphenylmethane]", "μM NO release Avg", 18.333],
  ["Oc1ccc(CCc2ccc(O)c(O)c2)cc1O [Compound 4, 1,2-bis(3,4-dihydroxyphenyl)ethane]", "μM NO release Avg", 15.521],
  ["O=C(N[C@@H]1CCCC[C@H]1NC(=O)c1ccc(O)c(O)c1)c1ccc(O)c(O)c1 (relative stereo) [Compound 26]", "μM NO release Avg", 24.219],
  ["O=C(NCc1ccc(O)c(O)c1)C(=Cc1ccc(O)c(O)c1)NC(=O)c1ccc(O)c(O)c1 [Compound 21]", "μM NO release Avg", 20.156]
]}

###

Test system: TNF-α release from microglia
Test: TNF-α release from LPS/IFNγ stimulated microglia, TNF-α ELISA (Example 11)
Format: cell-based
Details: Microglia, 24 h, 50 uM compound; TNF-α release, 10 ug LPS and 10 ng IFNγ, 24 hours; read-out: Avg % Inhibition
inhibition at 50 µM overview
measured.property: inhibition at 50 µM

{"columns": ["molecule", "measured.property", "reported"],
 "data": [
  ["O=C(CCC(=O)NCc1ccc(O)c(O)c1)NCc1ccc(O)c(O)c1", "inhibition at 50 µM", "-19.6%"],
  ["O=C(c1ccc(O)c(O)c1)C(O)c1ccc(O)c(O)c1 (stereo not shown) [Compound 1, 3,4,3′,4′-tetrahydroxybenzoin]", "inhibition at 50 µM", "-17.3%"],
  ["Oc1ccc(CNCc2ccc(O)c(O)c2)cc1O [Compound 73, bis(3,4-dihydroxybenzyl)amine]", "inhibition at 50 µM", "-45.9%"],
  ["O=C(CCc1ccc(O)c(O)c1)Nc1ccc(O)c(O)c1", "inhibition at 50 µM", "-3.89%"],
  ["Oc1cc2ncc3cnc4cc(O)c(O)cc4c3c2cc1O", "inhibition at 50 µM", "-16.8%"],
  ["O=C(CCc1ccc(O)c(O)c1)NCc1ccc(O)c(O)c1", "inhibition at 50 µM", "-12.6%"],
  ["O=C(NCc1ccc(O)c(O)c1)c1ccc(O)c(O)c1", "inhibition at 50 µM", "-23.2%"],
  ["O=C(C=Cc1ccc(O)c(O)c1)NCc1ccc(O)c(O)c1", "inhibition at 50 µM", "-9.32%"],
  ["Oc1ccc(CN(Cc2ccc(O)c(O)c2)Cc2ccc(O)c(O)c2)cc1O [Compound 75, tris(3,4-dihydroxybenzyl)amine]", "inhibition at 50 µM", "1.86%"],
  ["Oc1ccc(CN[C@@H]2CCCC[C@H]2NCc2ccc(O)c(O)c2)cc1O (relative stereo)", "inhibition at 50 µM", "17.2%"],
  ["O=C(Nc1ccc(O)c(O)c1)C(=O)Nc1ccc(O)c(O)c1 [Compound 63, oxalic acid bis(3,4-dihydroxyanilide)]", "inhibition at 50 µM", "-9.48%"],
  ["O=C(N[C@@H]1CCCC[C@H]1NC(=O)c1ccc(O)c(O)c1)c1ccc(O)c(O)c1 (relative stereo)", "inhibition at 50 µM", "-16.8%"],
  ["O=C(c1ccc(O)c(O)c1)N1CCN(C(=O)c2ccc(O)c(O)c2)CC1 [Compound 23, 1,4-bis(3,4-dihydroxybenzoyl)piperazine]", "inhibition at 50 µM", "-19.2%"]
]}

###

NO release, Avg overview
Test system: EOC 13.31 microglia cells
Test: NO release inhibition in LPS/IFNγ stimulated microglia, concurrent treatment, Griess reaction at 24 hours (Example 6)
Format: cell-based
Conditions: Compound + LPS/IFNγ, 50 μM, 24 hours
measured.property: NO release, Avg (µM)

{"columns": ["compound", "subject.of.test", "reported"],
 "data": [
  ["O=C(CCC(=O)Nc1ccc(O)c(O)c1)Nc1ccc(O)c(O)c1 [Compound 66, succinic acid bis(3,4-dihydroxyanilide)]", "EOC 13.31 microglia cells", 15.4762],
  ["O=C(NCCc1ccc(O)c(O)c1)Nc1ccc(O)c(O)c1 [Compound 78]", "EOC 13.31 microglia cells", 18.7925],
  ["O=C(Nc1ccc(O)c(O)c1)c1ccc(O)c(O)c1 [Compound 51]", "EOC 13.31 microglia cells", 20.6633],
  ["O=C(NCc1ccc(O)c(O)c1)C(=Cc1ccc(O)c(O)c1)NC(=O)c1ccc(O)c(O)c1 [Compound 21]", "EOC 13.31 microglia cells", 15.3486],
  ["O=C(N[C@@H]1CCCC[C@H]1NC(=O)c1ccc(O)c(O)c1)c1ccc(O)c(O)c1 (relative stereo) [Compound 26]", "EOC 13.31 microglia cells", 14.8384],
  ["O=C(NCc1ccc(O)c(O)c1)c1ccc(O)c(O)c1 [Compound 52]", "EOC 13.31 microglia cells", 16.2840],
  ["Oc1ccc(Cc2ccc(O)c(O)c2)cc1O [Compound 3, 3,4,3′,4′-tetrahydroxydiphenylmethane]", "EOC 13.31 microglia cells", 9.5299],
  ["Oc1ccc(CCc2ccc(O)c(O)c2)cc1O [Compound 4, 1,2-bis(3,4-dihydroxyphenyl)ethane]", "EOC 13.31 microglia cells", 1.0417]
]}

###

Test system: TNF-α release from microglia
Assay: TNF-α release from LPS/IFNγ stimulated microglia, TNF-α ELISA (Example 11)
Assay type: cell-based
Conditions: 50 uM compound; TNF-α release, 10 ug LPS and 10 ng IFNγ, 24 hours
Avg % Inhibition overview
measured.property: Avg % Inhibition (%)

{"columns": ["compound", "measurement.unit", "reported"],
 "data": [
  ["Oc1ccc(Cc2ccc(O)c(O)c2)cc1O", "%", 29.41],
  ["O=C(NCc1ccc(O)c(O)c1)Nc1ccc(O)c(O)c1", "%", 2.58],
  ["CN1C2CCC1C(Cc1ccc(O)c(O)c1)C(=O)C2Cc1ccc(O)c(O)c1 (stereo not shown)", "%", 9.42],
  ["O=C(NCc1ccc(O)c(O)c1)C(=Cc1ccc(O)c(O)c1)NC(=O)c1ccc(O)c(O)c1", "%", "−23.18"],
  ["Oc1ccc(CCc2ccc(O)c(O)c2)cc1O", "%", 89.89],
  ["O=C(Nc1ccc(O)c(O)c1)Nc1ccc(O)c(O)c1", "%", "−9.81"],
  ["O=C(CCC(=O)Nc1ccc(O)c(O)c1)Nc1ccc(O)c(O)c1", "%", "−13.70"]
]}

###

inhibition at 100 µM overview
Tested on: Microglial cells
Assay: Dose response inhibition of NO release from microglia, 0.5-500 μM (Example 9)
Type: cell-based
Conditions: Microglia, 48 h, dose 100 μM; NO release, LPS/IFNγ, 48 hours; read-out: Avg % Inhibition
measured.property: inhibition at 100 µM (%)

{"columns": ["molecule", "subject.of.test", "measurement.unit", "reported"],
 "data": [
  ["Oc1ccc(CNCc2ccc(O)c(O)c2)cc1O [Compound 73, bis(3,4-dihydroxybenzyl)amine]", "Microglial cells", "%", 33],
  ["O=C(N[C@@H]1CCCC[C@H]1NC(=O)c1ccc(O)c(O)c1)c1ccc(O)c(O)c1 (relative stereo)", "Microglial cells", "%", 16.2],
  ["O=C(NCc1ccc(O)c(O)c1)C(=Cc1ccc(O)c(O)c1)NC(=O)c1ccc(O)c(O)c1", "Microglial cells", "%", 35.2],
  ["O=C(CCC(=O)NCc1ccc(O)c(O)c1)NCc1ccc(O)c(O)c1", "Microglial cells", "%", 16]
]}

###

Test system: Microglial cells
Assay: Dose response inhibition of NO release from microglia, 0.75-200 μM (Example 8)
Assay type: cell-based
Settings: dose 100 μM, 48 hours

{"columns": ["compound", "μM NO release Avg / µM"],
 "data": [
  ["O=C(N[C@@H]1CCCC[C@H]1NC(=O)c1ccc(O)c(O)c1)c1ccc(O)c(O)c1 (relative stereo)", 18.594],
  ["O=C(NCc1ccc(O)c(O)c1)C(=Cc1ccc(O)c(O)c1)NC(=O)c1ccc(O)c(O)c1", 13.125],
  ["Oc1ccc(CCc2ccc(O)c(O)c2)cc1O [Compound 4, 1,2-bis(3,4-dihydroxyphenyl)ethane]", 4.333],
  ["Oc1ccc(Cc2ccc(O)c(O)c2)cc1O [Compound 3, 3,4,3′,4′-tetrahydroxydiphenylmethane]", 7.448]
]}
